These measurements were taken from patent EP3319959B1.

Molecular target: HDAC2 (Homo sapiens, UniProt Q92769)
Sequence (Q92769 whole entry): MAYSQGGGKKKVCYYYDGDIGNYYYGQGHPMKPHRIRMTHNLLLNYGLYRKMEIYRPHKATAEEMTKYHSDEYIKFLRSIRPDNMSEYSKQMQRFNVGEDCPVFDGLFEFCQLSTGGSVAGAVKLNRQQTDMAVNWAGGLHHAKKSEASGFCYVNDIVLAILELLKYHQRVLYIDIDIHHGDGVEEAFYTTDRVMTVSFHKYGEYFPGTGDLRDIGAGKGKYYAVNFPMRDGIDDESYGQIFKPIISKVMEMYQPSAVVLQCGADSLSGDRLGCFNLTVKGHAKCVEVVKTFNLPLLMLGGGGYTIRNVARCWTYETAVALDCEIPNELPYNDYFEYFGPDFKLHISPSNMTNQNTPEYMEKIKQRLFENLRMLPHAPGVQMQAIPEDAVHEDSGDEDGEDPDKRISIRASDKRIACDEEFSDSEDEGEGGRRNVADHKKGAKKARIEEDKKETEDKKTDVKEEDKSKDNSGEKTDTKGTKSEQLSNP
Experiment: Reporter displacement assay (HDAC2)
Conditions: 20 nM HDAC2, 180 nM reporter probe, read after 4 hours; Kd by Cheng Prusoff equation
readout.type: Kd

[[record]]
compound = "Nc1cc(F)c(-c2ccc(F)cc2)cc1NC(=O)N1Cc2nccnc2C1"
readout_type = "Kd"
readout_value = "100 to 500 nM"

[[record]]
compound = "Nc1cc(F)c(-c2ccc(F)cc2)cc1NC(=O)C1CCOCC1"
readout_type = "Kd"
readout_value = "500 to 5000 nM"

[[record]]
compound = "Nc1ncc(-c2ccc(F)cc2)cc1NC(=O)N1CC2CCCC2C1 (centres unmarked)"
readout_type = "Kd"
readout_value = "> 5000 nM"

[[record]]
compound = "Nc1ccc(-c2ccc(F)cc2)nc1NC(=O)N1Cc2nccnc2C1"
readout_type = "Kd"
readout_value = "500 to 5000 nM"

[[record]]
compound = "Nc1cnc(-c2ccc(F)cc2)cc1NC(=O)C1CCOCC1"
readout_type = "Kd"
readout_value = "> 5000 nM"

